FYI, the data here is from patent US4551445A.

- System: vasopressor response to arginine vasopressin
- assay remarks: Antivasopressor: antagonism to the vasopressor response (Dyckes et al.)
- Format: in vivo
- run conditions: Table 1; estimated in vivo pA2
Starred links: 1 amine or outer side, 2 acyl side, 3 side chain; linkers in the order of their positions; H or OH if unused. Positions of bridges follow the written chain, without caps; N, C: chain ends. Non-standard residues stand in square brackets, D forms with d. Residues, ends and D or L forms follow the SMILES beside them. X1 = O=C(CC1(S[*:2])CCCCC1)[*:1]
I'd appreciate it if you could supply Antivasopressor pA2 values for the items below.
Answers are plain numbers.

compound	Antivasopressor pA2
COc1ccc(C[C@@H]2NC(=O)CC3(CCCCC3)SSC[C@@H](C(=O)N3CCC[C@H]3C(=O)N[C@H](CCCNC(=N)N)C(=O)NCC(N)=O)NC(=O)[C@H](CC(N)=O)NC(=O)[C@H](C(C)C)NC(=O)[C@H](Cc3ccccc3)NC2=O)cc1 [d(CH2)5 Tyr(Me)VDAVP] (Y(Me)FVNCP[dR]G-NH2; linker N-5 via X1)	8.44

Kindly consider the entry below.
Look up and report measured Antivasopressor pA2 for this entry: COc1ccc(C[C@H]2NC(=O)CC3(CCCCC3)SSC[C@@H](C(=O)N3CCC[C@H]3C(=O)N[C@@H](CCCNC(=N)N)C(=O)NCC(N)=O)NC(=O)[C@H](CC(N)=O)NC(=O)[C@H](C(C)C)NC(=O)[C@H](Cc3ccccc3)NC2=O)cc1 [d(CH2)5 --D-Tyr(Me)VAVP] ([dY](Me)FVNCPRG-NH2; linker N-5 via X1)
8.48
